Hello, the source for this data is the Deep4Chem optical property database, in case you need it.

# assay.info: solvent given as SMILES
# applied.conditions: in CCCCO
Documented absorption maximum across a set of molecules
Just the number please, in nm, no unit attached.

Observe how each entry below is paired with its result.
>>> value_reported("CCCCCCC(CCCCCC)N1C(=O)c2cccc3c(-c4ccc(OC)c5cccc(C)c45)ccc(c23)C1=O")
327.8
>>> value_reported("CN1CCN(c2ccc3c4c(cccc24)C(=O)c2ccccc2-3)CC1")
454.6
>>> value_reported("CCCCCCCCCCCCCCCC[n+]1ccc(/C=C/c2ccccc2O)cc1")
523.4
>>> value_reported("COC(=O)C(Cc1ccc2oc(-c3ccc(-n4c5ccccc5c5ccccc54)cc3)nc2c1)NC(=O)OC(C)(C)C (stereo not given)")
341.8
>>> value_reported("CN(C)c1ccc(-c2nc3cnccc3[nH]2)cc1")
339

# ---- query molecule ----
Query: Fill in the blank: the reported absorption maximum of COC(=O)c1ccc2c3ccc(C(=O)OC)c4c(C(=O)OC)ccc(c5ccc(C(=O)OC)c1c25)c43 is ____.
Response: 476
